# Tested on: HOP-92 NSCLC
# Assay Explanation: NCI-60 one-dose screen, 48 h
# Cond: 10 µM unless noted
About 83,000 compounds went through this panel and 20% of them were active in at least one assay; those are over-represented in the sample as a whole. Active and inactive are the calls of the source. The calls were made as follows: active = growth percent below 10; inactive = the rest.
Outcome codes: active, inactive

[[record]]
compound = "Clc1ccc(C(Cn2ccnc2)OCc2ccsc2Cl)c(Cl)c1 (centres undefined)"
assigned_class = "inactive"

[[record]]
compound = "C=CC(=O)Nc1cccc(Oc2nc(Nc3ccc(N4CCN(C)CC4)cc3)nc3ccsc23)c1"
assigned_class = "active"

[[record]]
compound = "C[C@@]1(C(=O)Nc2ccc(F)nc2)CCCN1c1nc(Nc2cc(C3CC3)[nH]n2)c2cccn2n1"
assigned_class = "active"

[[record]]
compound = "Cc1nc(-c2cn3c(n2)-c2ccc(-c4cnn(C(C)(C)C(N)=O)c4)cc2OCC3)n(C(C)C)n1"
assigned_class = "active"

[[record]]
compound = "C=CC(=O)Nc1cc2c(Nc3ccc(F)c(Cl)c3)ncnc2cc1C#CC(C)(C)N1CCN(C)CC1"
assigned_class = "active"

[[record]]
compound = "CCN1CCN(Cc2ccc(NC(=O)Nc3nc(-c4cc(OC)c(OC)c(OC)c4)cs3)cc2C(F)(F)F)CC1"
assigned_class = "inactive"

[[record]]
compound = "CS(=O)(=O)N1CCc2c(-c3cnc(N)nc3)nc(N3CCOCC3)nc21"
assigned_class = "active"

[[record]]
compound = "CN1CCN(Cc2ccc(NC(=O)c3[nH]ncc3Nc3ncnc4sc5c(c34)CCCC5)cc2)CC1"
assigned_class = "active"

[[record]]
compound = "O=C(Nc1cccc([N+](=O)[O-])c1)c1ccc(Cl)c(Cl)c1"
assigned_class = "inactive"

[[record]]
compound = "CC[C@H](CO)Nc1nc(NCc2ccccc2)c2ncn(C(C)C)c2n1"
assigned_class = "inactive"

[[record]]
compound = "N#Cc1c(-c2ccc(C(F)(F)F)cc2)c(F)c(NCCC2CCC(O)C2)n2c1nc1ccccc12 (centres undefined)"
assigned_class = "inactive"

[[record]]
compound = "Cc1cn(-c2cc(NC(=O)c3ccc(C)c(Nc4nccc(-c5cccnc5)n4)c3)cc(C(F)(F)F)c2)cn1"
assigned_class = "inactive"

[[record]]
compound = "CN(C)CCn1c(=O)c2c3cc4c(cc3n(CCN(C)C)c2c2ccc(Cl)cc21)OCO4"
assigned_class = "inactive"

[[record]]
compound = "Cn1cnc2c(F)c(Nc3ccc(Br)cc3F)c(C(=O)NOCCO)cc21"
assigned_class = "active"

[[record]]
compound = "CCn1c(-c2nonc2N)nc2c(C#CC(C)(C)O)ncc(OC[C@H]3CCCNC3)c21"
assigned_class = "inactive"

[[record]]
compound = "COc1cc2ncnc3c2cc1OCCCCCN(C)Cc1ccc(Br)cc1N3"
assigned_class = "inactive"

[[record]]
compound = "CC[C@@H]1C(=O)N(C)c2cnc(Nc3ccc(C(=O)NC4CCC(N5CCN(CC6CC6)CC5)CC4)cc3OC)nc2N1C(C)C (some centres undefined)"
assigned_class = "inactive"

[[record]]
compound = "Ic1ccccc1-c1ccccc1"
assigned_class = "inactive"

[[record]]
compound = "Cc1cc2c(-c3nc4ccccn4c3N)c(O)c(O)cc2c(O)c1-c1c(C)cc2c(-c3nc4ccccn4c3N)c(O)c(O)cc2c1O"
assigned_class = "active"


###

// growth lookup, one value per entry
# Tested on: T-47D breast
# Assay Explanation: NCI-60 one-dose screen, 48 h (100 = growth as untreated, 0 = no growth, -100 = all killed)
# Cond: 10 µM unless noted
Compounds without any hit were thinned out: in the full panel of roughly 83,000, 20% have a hit.
Recorded Endpoint: growth (%)

[[record]]
chemical_string = "Cc1cc(Nc2ncnc3ccc(NC4=NC(C)(C)CO4)cc23)ccc1Oc1ccn2ncnc2c1"
recorded_endpoint = "growth"
unit_text = "%"
meas_value = 32.3

[[record]]
chemical_string = "COc1ccc(CCCc2c3[n+](cc4c(OC)c(OC)ccc24)CCc2cc4c(cc2-3)OCO4)cc1"
recorded_endpoint = "growth"
unit_text = "%"
meas_value = 15.6

[[record]]
chemical_string = "C[C@@H](Oc1cc(-n2cnc3ccc(CN4CCN(C)CC4)cc32)sc1C(N)=O)c1ccccc1C(F)(F)F"
recorded_endpoint = "growth"
unit_text = "%"
meas_value = 40.8

[[record]]
chemical_string = "CC(C)OP(=O)(CCC(=O)c1c[nH]c2ccccc12)OC(C)C"
recorded_endpoint = "growth"
unit_text = "%"
meas_value = 89.5

[[record]]
chemical_string = "CN1CC[C@H](c2c(O)cc(O)c3c(=O)cc(-c4ccccc4Cl)oc23)[C@H](O)C1"
recorded_endpoint = "growth"
unit_text = "%"
meas_value = 0.506

[[record]]
chemical_string = "Cc1csc(-c2nnc(Nc3ccc(Oc4ncccc4-c4ccnc(N)n4)cc3)c3ccccc23)c1"
recorded_endpoint = "growth"
unit_text = "%"
meas_value = 30.5

[[record]]
chemical_string = "CC(C)(C)c1ccc(Cn2cc(CSc3nc4ccccc4s3)nn2)cc1"
recorded_endpoint = "growth"
unit_text = "%"
meas_value = 73.4

[[record]]
chemical_string = "O=C(NCCO)Nc1ccc(-c2nc(N3CCOCC3)c3cccn3n2)cc1"
recorded_endpoint = "growth"
unit_text = "%"
meas_value = -32.6

[[record]]
chemical_string = "COc1cc(Nc2ncc(F)c(Nc3ccc4c(n3)N(COP(=O)(O)O)C(=O)C(C)(C)O4)n2)cc(OC)c1OC"
recorded_endpoint = "growth"
unit_text = "%"
meas_value = 14.4


###

# System: CCRF-CEM leukemia
# Assay Explanation: NCI-60 one-dose screen, 48 h (100 = growth as untreated, 0 = no growth, -100 = all killed)
# Cond: 10 µM unless noted
Compounds without any hit were thinned out: in the full panel of roughly 83,000, 20% have a hit.
Recorded Endpoint: growth (%)

[[record]]
chemical_string = "C[C@@H](Oc1cc(C(=O)Nc2ccc(C(=O)N3CCN(C)CC3)cc2)nnc1N)c1c(Cl)ccc(F)c1Cl"
unit_text = "%"
meas_value = 55.9

[[record]]
chemical_string = "C[C@@H](Nc1cc(F)cc(F)c1)c1cc(C(=O)N(C)C)cc2c(=O)cc(N3CCOCC3)oc12"
unit_text = "%"
meas_value = 70.3

[[record]]
chemical_string = "Cn1c(=O)c(F)c(Nc2ccc(I)cc2F)c2c(=O)n(C[C@@H](O)CO)cnc21"
unit_text = "%"
meas_value = 66.8

[[record]]
chemical_string = "C[C@@H]1COCCN1c1cc(C2([S@](C)(=N)=O)CC2)nc(-c2ccnc3[nH]ccc23)n1"
unit_text = "%"
meas_value = 7.78


###

# Tested on: OVCAR-3 ovarian
# Assay Explanation: NCI-60 one-dose screen, 48 h (100 = growth as untreated, 0 = no growth, -100 = all killed)
# Cond: 10 µM unless noted
About 83,000 compounds went through this panel and 20% of them were active in at least one assay; those are over-represented in the sample as a whole. The source made the active and inactive calls. How the source made its calls: active means growth percent below 10; inactive means the rest.
Recorded Endpoint: growth

[[record]]
compound = "COc1cc2c(Nc3ccc(Br)cc3F)ncnc2cc1OCC1CCN(C)CC1"
meas_value = "42.4% (inactive)"

[[record]]
compound = "COc1cc2ncnc(Nc3ccc(O)cc3)c2cc1OC"
meas_value = "87.4% (inactive)"

[[record]]
compound = "CCCCN1CCCC[C@@H]1C(=O)N[C@H](C(=O)N(C)[C@H](CCc1nc(C(=O)N[C@@H](Cc2ccccc2)C[C@H](C)C(=O)OC)cs1)C(C)C)C(C)C"
meas_value = "65.2% (inactive)"

[[record]]
compound = "COc1ccc2c(CCCc3ccc(Cl)cc3Cl)c3[n+](cc2c1OC)CCc1cc2c(cc1-3)OCO2"
meas_value = "-48.4% (active)"

[[record]]
compound = "Cc1cc2c3c(cccc3c1)C(=O)c1ccccc1-2"
meas_value = "90.2% (inactive)"

[[record]]
compound = "Cc1cc(Nc2nc(N[C@@H](C)c3ncc(F)cn3)ncc2Cl)n[nH]1"
meas_value = "93.3% (inactive)"

[[record]]
compound = "COC(=O)[C@H](Cc1ccc(O)cc1)NC(=O)[C@@H](OC)[C@@H]1Cc2cc3cc(OC4CC(OC5CC(O)C(O)C(C)O5)C(O)C(C)O4)c(C)c(O)c3c(O)c2C(=O)[C@H]1OC1CC(OC2CC(OC3CC(C)(O)C(O)C(C)O3)C(O)C(C)O2)C(O)C(C)O1 (some centres not stated)"
meas_value = "5.52% (active)"

[[record]]
compound = "O=C(Cn1ccnc1)Nc1ccc(-c2nc3ccccc3s2)cc1"
meas_value = "62.2% (inactive)"

[[record]]
compound = "Cc1nn(-c2nc3ccccc3[nH]2)c2c1C(c1ccc(OCc3ccc(F)cc3)cc1)CC(=O)N2 (configuration not stated)"
meas_value = "51% (inactive)"

[[record]]
compound = "COC(=O)CCCNc1c(-c2c(O)c(O)cc3c(O)c(-c4c(C)cc5c(-c6nc7ccccn7c6NCCCC(=O)OC)c(O)c(O)cc5c4O)c(C)cc23)nc2ccccn12"
meas_value = "64.6% (inactive)"

[[record]]
compound = "COc1ccc(Cc2cc(-c3ccccc3C)n[nH]c2=O)cc1"
meas_value = "96.4% (inactive)"

[[record]]
compound = "CC(C)(C)c1cnc(CSc2cnc(NC(=O)C3CCNCC3)s2)o1"
meas_value = "20.2% (inactive)"

[[record]]
compound = "CNC(=O)c1ccccc1Nc1nc(Nc2ccc3c(c2OC)CCC[C@H](N2CCN(CCO)CC2)C3)ncc1Cl"
meas_value = "30.7% (inactive)"

[[record]]
compound = "Oc1ccc(C(c2ccc(O)cc2)C(Cl)(Cl)Cl)cc1"
meas_value = "105% (inactive)"

[[record]]
compound = "Cc1[nH]n(C(N)=S)c(=O)c1N=Nc1ccc(S(=O)(=O)Nc2ccncn2)cc1"
meas_value = "99% (inactive)"

[[record]]
compound = "CSc1nc2ncnc(SC)c2[nH]1"
meas_value = "115% (inactive)"

[[record]]
compound = "O=C1CC(c2ccc(Cl)cc2)c2ncn(-c3cccc(Cl)c3)c2N1 (configuration not stated)"
meas_value = "13.3% (inactive)"

[[record]]
compound = "CC(CCCC(=O)O)c1ccoc1 (configuration not stated)"
meas_value = "105% (inactive)"

[[record]]
compound = "C=C1CC[C@@H]2[C@](C)(COC(C)=O)[C@H](OC(C)=O)CC[C@@]2(C)[C@@H]1C/C=C1/C(=O)OC[C@H]1OC(C)=O"
meas_value = "-21.3% (active)"

[[record]]
compound = "C=C1[C@@H](O)C[C@H]2C(C)(C)C[C@H](Cl)C[C@]2(C)[C@H]1C[C@H](O)[C@H]1CC(=O)NC1=O"
meas_value = "-27.4% (active)"

[[record]]
compound = "CC(C)=CCc1cc2c(cc1O)C1=C(C(=O)C3=C(C1=O)S(=O)(=O)CCN3)C(C=C(C)C)O2 (configuration not stated)"
meas_value = "0.0791% (active)"

[[record]]
compound = "COC(=O)CNC(=O)[C@@H](OC)[C@@H]1Cc2cc3cc(OC4CC(OC5CC(O)C(O)C(C)O5)C(O)C(C)O4)c(C)c(O)c3c(O)c2C(=O)[C@H]1OC1CC(OC2CC(OC3CC(C)(O)C(O)C(C)O3)C(O)C(C)O2)C(O)C(C)O1 (some centres not stated)"
meas_value = "3.71% (active)"

[[record]]
compound = "COC(=O)[C@]12CC[C@@H](C)[C@H](C)[C@@H]1C1=CC[C@@H]3[C@@]4(C)C(C#N)=CC(C)=C4CC[C@@]3(C)[C@]1(C)CC2"
meas_value = "88.9% (inactive)"

[[record]]
compound = "NC1(C(=O)N[C@@H](CCO)c2ccc(Cl)cc2)CCN(c2ncnc3[nH]ccc23)CC1"
meas_value = "61.3% (inactive)"

[[record]]
compound = "Cc1cc(C(=O)Nc2cc(Oc3ccc4nc(NC(=O)C5CC5)cn4n3)ccc2C)n(C)n1"
meas_value = "52.8% (inactive)"

[[record]]
compound = "S=C(NCc1ccc2c(c1)OCO2)N1CCN(c2ncnc3c2oc2ccccc23)CC1"
meas_value = "30.9% (inactive)"

[[record]]
compound = "Nc1c2c(c(O)c3c1=C(CO)C=N3)=NCCS2"
meas_value = "-62.3% (active)"

[[record]]
compound = "CC(=O)c1cnc2ccc(-c3cc(Cl)c(O)c(Cl)c3)nc2c1NC1CCC(CN(C)C)CC1 (configuration not stated)"
meas_value = "2.02% [2.5 µM] (active)"

[[record]]
compound = "CNC(=O)c1cc(Oc2ccc(NC(=O)Nc3ccc(Cl)c(C(F)(F)F)c3)c(F)c2)ccn1"
meas_value = "0.719% (active)"

[[record]]
compound = "C=CCC(=O)N[C@H](/C=C/C(=O)O)Cc1ccc(-c2cc(Cl)cc(Cl)c2)cc1"
meas_value = "108% (inactive)"

[[record]]
compound = "CNC(=O)c1c(C)oc2cc(Oc3ncnc4cc(OC)c(OC)cc34)ccc12"
meas_value = "89.2% (inactive)"

[[record]]
compound = "COc1ccc(F)c(F)c1C(=O)c1cnc(NC2CCN(S(C)(=O)=O)CC2)nc1N"
meas_value = "13.1% (inactive)"

[[record]]
compound = "CCN(CC)c1cc2oc3cc(N)cc(=N)c-3nc2cc1C"
meas_value = "24.7% (inactive)"

[[record]]
compound = "COc1ccc(Nc2ncccc2NC(=O)c2cn(Cc3cccc(Oc4ccccc4)c3)nn2)cc1"
meas_value = "92% (inactive)"

[[record]]
compound = "CCN(CC)CCN1C(=O)c2cccc3c(-c4ccc5c(c4)ncn5C4CCCCC4)ccc(c23)C1=O"
meas_value = "44.8% (inactive)"

[[record]]
compound = "O=C(NO)c1ccc(Cn2c(=O)n(CCc3ccccc3)c(=O)c3ccccc32)cc1"
meas_value = "13.8% (inactive)"

[[record]]
compound = "CC(C)NC[C@@H](C(=O)N1CCN(c2ncnc3c2[C@H](C)C[C@H]3O)CC1)c1ccc(Cl)cc1"
meas_value = "49.7% (inactive)"

